Assay: BSK_CASM3C_Proliferation: Cell Proliferation Assessment in the BioMAP Diversity Plus: CASM3C Assay (AID 2283047);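 note: sulforhodamine B total protein stain as relative cell number at 560 nm; sub-confluent cells exposed 48 h before staining; fitted both ways against DMSO so gain or loss of cell number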
Conditions: primary human coronary artery smooth muscle cells
The source made the active and inactive calls. Rule for the calls: active = hit-call score of the fitted dose curve at least 0.9, where 1 is the maximum; inactive = score below 0.9.
Labels: true (1) = active, false (0) = inactive

>>> discrete_label("CCOCN(C(=O)CCl)c1c(C)cccc1CC")
"true (1)"
>>> discrete_label("CCC(C)(C)C(=O)OC1=C(c2ccc(Cl)cc2Cl)C(=O)OC12CCCCC2")
"true (1)"
>>> discrete_label("CC(C)OC(=O)Nc1cccc(Cl)c1")
"false (0)"
>>> discrete_label("N#Cc1c(Cl)c(Cl)c(Cl)c(C#N)c1Cl")
"true (1)"
>>> discrete_label("CCS(=O)(=O)c1cccnc1S(=O)(=O)NC(=O)Nc1nc(OC)cc(OC)n1")
"false (0)"
>>> discrete_label("O=C(Nc1ccccc1)Nc1cnns1")
"false (0)"
>>> discrete_label("O=C(O)COc1ccc(Cl)cc1Cl")
"false (0)"
>>> discrete_label("COP(=S)(OC)Oc1ccc(SC)c(C)c1")
"false (0)"
>>> discrete_label("CC1(c2ccc(Oc3ccccc3)cc2)OC(=O)N(Nc2ccccc2)C1=O (stereo not given)")
"true (1)"
>>> discrete_label("CCc1ccc(C(=O)NN(C(=O)c2cc(C)cc(C)c2)C(C)(C)C)cc1")
"true (1)"
>>> discrete_label("[2H]C1([2H])[n+]2ccccc2-c2cccc[n+]2C1([2H])[2H]")
"true (1)"
>>> discrete_label("O=C(NC(=O)c1c(F)cccc1F)Nc1ccc(OC(F)(F)C(F)OC(F)(F)F)c(Cl)c1 (stereo not given)")
"false (0)"
>>> discrete_label("CCOC1Oc2ccc(OS(C)(=O)=O)cc2C1(C)C (stereo not given)")
"false (0)"
>>> discrete_label("CC1(C)C(C=C(Cl)Cl)C1C(=O)OC(C#N)c1ccc(F)c(Oc2ccccc2)c1 (stereo not given)")
"false (0)"
>>> discrete_label("CCC(C)(NC(=O)c1cc(Cl)c(C)c(Cl)c1)C(=O)CCl (stereo not given)")
"true (1)"
>>> discrete_label("CNC(=O)Oc1cccc(N=CN(C)C)c1")
"false (0)"
>>> discrete_label("Cc1cc(C)nc(NC(=O)NS(=O)(=O)c2ccccc2C(=O)OC2COC2)n1")
"false (0)"
>>> discrete_label("CCOc1nc(NC)nc(NC(=O)NS(=O)(=O)c2ccccc2C(=O)OC)n1")
"false (0)"
>>> discrete_label("COc1cc(OC)nc(NC(=O)NS(=O)(=O)c2cc(NC=O)ccc2C(=O)N(C)C)n1")
"false (0)"
>>> discrete_label("N#CN")
"false (0)"
>>> discrete_label("C[C@H]1[C@H](c2ccc(Cl)cc2)SC(=O)N1C(=O)NC1CCCCC1")
"true (1)"
>>> discrete_label("CCN(CC)C(=O)SCc1ccc(Cl)cc1")
"true (1)"
>>> discrete_label("COc1nn(CSP(=S)(OC)OC)c(=O)s1")
"false (0)"
>>> discrete_label("CC(C)(C)C(O)/C(=C\\c1ccc(Cl)cc1Cl)n1cncn1 (stereo not given)")
"true (1)"
>>> discrete_label("O=C1c2ccccc2C(=O)N1SC(Cl)(Cl)Cl")
"true (1)"
>>> discrete_label("O=[N+]([O-])c1c(Cl)c(Cl)c(Cl)c(Cl)c1Cl")
"false (0)"
>>> discrete_label("Oc1cc(Cl)ccc1Oc1ccc(Cl)cc1Cl")
"true (1)"
>>> discrete_label("CC(C)N(C(=O)COc1nnc(C(F)(F)F)s1)c1ccc(F)cc1")
"false (0)"
>>> discrete_label("O=S1OCC2C(CO1)C1(Cl)C(Cl)=C(Cl)C2(Cl)C1(Cl)Cl (stereo not given)")
"true (1)"
>>> discrete_label("CN1CSC(=S)N(C)C1")
"true (1)"

----------
Test: BSK_3C_SRB: Viability Assessment in the BioMAP Diversity Plus: 3C Assay (AID 2283023);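 note: cells read 24 h after compound dosing; fitted both ways against DMSO so a hit may be signal rise or drop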
Details: primary human endothelial cells (HUVEC)
Calls of active or inactive are those of the source. Rule for the calls: active = hit-call score of the fitted dose curve at least 0.9, where 1 is the maximum; inactive = score below 0.9.
Possible outcomes: 1 for active, -1 for inactive

>>> discrete_label("COc1cc(OC)nc(NC(=O)NS(=O)(=O)c2cc(NC=O)ccc2C(=O)N(C)C)n1")
-1
>>> discrete_label("COP(=O)(OC)OC=C(Cl)Cl")
-1
>>> discrete_label("CC(C)(C)C(O)C(Oc1ccc(Cl)cc1)n1cncn1 (stereo unspecified)")
-1
>>> discrete_label("CC1(c2ccc(Oc3ccccc3)cc2)OC(=O)N(Nc2ccccc2)C1=O (stereo unspecified)")
1
>>> discrete_label("O=C1c2ccccc2C(=O)N1SC(Cl)(Cl)Cl")
-1
>>> discrete_label("Clc1ccccc1-c1nnc(-c2ccccc2Cl)nn1")
-1
>>> discrete_label("O=[N+]([O-])/N=C1\\NCCN1Cc1ccc(Cl)nc1")
-1
>>> discrete_label("COP(=S)(OC)Oc1ccc([N+](=O)[O-])cc1")
1
>>> discrete_label("CCOCN(C(=O)CCl)c1c(C)cccc1CC")
1
>>> discrete_label("CCS(=O)(=O)c1cccnc1S(=O)(=O)NC(=O)Nc1nc(OC)cc(OC)n1")
-1
>>> discrete_label("Oc1ccc(Cl)cc1Cc1ccccc1")
1
>>> discrete_label("N#CN")
-1
>>> discrete_label("O=S1OCC2C(CO1)C1(Cl)C(Cl)=C(Cl)C2(Cl)C1(Cl)Cl (stereo unspecified)")
1
>>> discrete_label("CCC(C)(NC(=O)c1cc(Cl)c(C)c(Cl)c1)C(=O)CCl (stereo unspecified)")
1
>>> discrete_label("O=C(O)COc1ccc(Cl)cc1Cl")
-1
>>> discrete_label("CNC(=O)Oc1cccc(N=CN(C)C)c1")
-1
>>> discrete_label("CCc1ccc(C(=O)NN(C(=O)c2cc(C)cc(C)c2)C(C)(C)C)cc1")
1
>>> discrete_label("CNC(=O)/C=C(\\C)OP(=O)(OC)OC")
-1
>>> discrete_label("COC(=O)c1ccccc1CS(=O)(=O)NC(=O)Nc1nc(OC)cc(OC)n1")
-1
>>> discrete_label("CNC(=O)Oc1ccccc1OC(C)C")
-1
>>> discrete_label("CCCN(CCOc1c(Cl)cc(Cl)cc1Cl)C(=O)n1ccnc1")
1
>>> discrete_label("Oc1cc(Cl)ccc1Oc1ccc(Cl)cc1Cl")
1
>>> discrete_label("COC(=O)c1ccccc1S(=O)(=O)NC(=O)Nc1nc(C)nc(OC)n1")
-1
>>> discrete_label("COC(=O)c1ccccc1S(=O)(=O)NC(=O)N(C)c1nc(C)nc(OC)n1")
-1
>>> discrete_label("Cc1cc(C)nc(NC(=O)NS(=O)(=O)c2ccccc2C(=O)OC2COC2)n1")
-1
>>> discrete_label("CNC(=O)CSP(=S)(OC)OC")
-1

----------
Target: rat CYP2A1, Cyp2a1 (gene 24894) (UniProt P11711)
Sequence (P11711 whole entry, looked up): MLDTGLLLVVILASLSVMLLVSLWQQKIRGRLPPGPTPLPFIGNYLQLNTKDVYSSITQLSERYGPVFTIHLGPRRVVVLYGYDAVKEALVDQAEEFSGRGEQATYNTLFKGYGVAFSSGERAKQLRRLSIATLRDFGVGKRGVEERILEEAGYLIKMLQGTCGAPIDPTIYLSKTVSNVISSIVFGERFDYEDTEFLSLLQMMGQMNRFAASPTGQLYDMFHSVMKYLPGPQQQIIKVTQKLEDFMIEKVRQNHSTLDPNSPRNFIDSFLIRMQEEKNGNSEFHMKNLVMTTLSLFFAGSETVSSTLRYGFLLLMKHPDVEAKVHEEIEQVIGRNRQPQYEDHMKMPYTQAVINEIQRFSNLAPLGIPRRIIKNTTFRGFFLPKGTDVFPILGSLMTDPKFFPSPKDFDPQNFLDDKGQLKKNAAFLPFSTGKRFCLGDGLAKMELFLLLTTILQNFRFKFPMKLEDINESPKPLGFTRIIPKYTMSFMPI
Experiment: NVS_ADME_rCYP2A1: NovaScreen (NVS) CYP450-related Enzyme Activity (ADME) Assay for rat CYP2A1 (AID 2283114)
Calls of active or inactive are those of the source. The calls were made as follows: active = hit-call score of the fitted dose curve at least 0.9, where 1 is the maximum; inactive = score below 0.9.
Listed here: items and their measured AC50.
Metric: AC50

>>> val("CC(C)N(C(=O)COc1nnc(C(F)(F)F)s1)c1ccc(F)cc1")
"10 µM (active)"
>>> val("CCCN(CCOc1c(Cl)cc(Cl)cc1Cl)C(=O)n1ccnc1")
"0.512 µM (active)"
>>> val("CC(C)(C)C(O)C(Oc1ccc(Cl)cc1)n1cncn1 (stereo not given)")
"3.66 µM (active)"
>>> val("COP(=S)(OC)Oc1ccc([N+](=O)[O-])cc1")
"7.12 µM (active)"
>>> val("Oc1ccc(Cl)cc1Cc1ccccc1")
"5.61 µM (active)"

----------
Read-out: sulfotransferase 2A1 (SULT2A1), SULT2A1 (gene 6822)
Test: LTEA_HepaRG_SULT2A1: Life Technologies and Expression Analysis (LTEA) Assay for sulfotransferase 2A1 (SULT2A1) using HepaRG (AID 2283531)
Settings: mRNA level, 48 h; actives raise or lower the signal
Calls of active or inactive are those of the source. How the source made its calls: active means hit-call score of the fitted dose curve at least 0.9, where 1 is the maximum; inactive means score below 0.9.
Outcome codes: active, inactive

>>> discrete_label("COc1nn(CSP(=S)(OC)OC)c(=O)s1")
"inactive"
>>> discrete_label("CC(C)(C)C(O)/C(=C\\c1ccc(Cl)cc1Cl)n1cncn1 (stereo unspecified)")
"active"
>>> discrete_label("CCN(CC)C(=O)SCc1ccc(Cl)cc1")
"inactive"
>>> discrete_label("CC1(c2ccc(Oc3ccccc3)cc2)OC(=O)N(Nc2ccccc2)C1=O (stereo unspecified)")
"active"
>>> discrete_label("COP(=S)(OC)Oc1ccc(SC)c(C)c1")
"inactive"
>>> discrete_label("COP(=S)(OC)Oc1ccc([N+](=O)[O-])cc1")
"inactive"

----------
Read-out: Broad substrate specificity ATP-binding cassette transporter ABCG2 (Homo sapiens) (UniProt Q9UNQ0)
Sequence (Q9UNQ0 whole entry, looked up): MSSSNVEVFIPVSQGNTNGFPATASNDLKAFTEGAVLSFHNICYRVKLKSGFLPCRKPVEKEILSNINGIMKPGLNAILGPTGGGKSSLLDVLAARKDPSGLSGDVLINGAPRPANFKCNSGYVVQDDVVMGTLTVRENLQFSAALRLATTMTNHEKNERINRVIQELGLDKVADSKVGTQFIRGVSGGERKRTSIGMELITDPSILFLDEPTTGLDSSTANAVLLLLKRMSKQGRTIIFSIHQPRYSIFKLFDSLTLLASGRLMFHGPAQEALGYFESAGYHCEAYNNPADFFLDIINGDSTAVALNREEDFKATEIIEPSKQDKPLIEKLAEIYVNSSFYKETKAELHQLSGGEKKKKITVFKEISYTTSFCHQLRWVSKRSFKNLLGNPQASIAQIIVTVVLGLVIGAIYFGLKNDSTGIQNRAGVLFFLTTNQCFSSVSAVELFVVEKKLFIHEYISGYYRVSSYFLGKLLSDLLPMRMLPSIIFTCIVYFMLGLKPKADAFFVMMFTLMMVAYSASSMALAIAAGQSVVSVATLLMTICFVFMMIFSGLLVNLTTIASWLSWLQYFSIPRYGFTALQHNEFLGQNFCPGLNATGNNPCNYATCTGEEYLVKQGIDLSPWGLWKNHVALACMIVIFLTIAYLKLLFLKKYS
Test: CLD_ABCG2_24hr: CellzDirect (CLD) Gene Expression Assay for ABC Transporter (ABCG2) at 24 hours (AID 2283685)
Inconclusive results are not listed. Calls of active or inactive are those of the source. How the source made its calls: active means hit-call score of the fitted dose curve at least 0.9, where 1 is the maximum; inconclusive means response in the unintended direction; inactive means score below 0.9.
Outcomes: active, inactive

>>> discrete_label("C[C@H]1[C@H](c2ccc(Cl)cc2)SC(=O)N1C(=O)NC1CCCCC1")
"inactive"
>>> discrete_label("CC[C@H](C)[C@H]1O[C@]2(C=C[C@@H]1C)C[C@@H]1C[C@@H](C/C=C(\\C)[C@@H](O[C@H]3C[C@H](OC)[C@@H](O[C@H]4C[C@H](OC)[C@@H](O)[C@H](C)O4)[C@H](C)O3)[C@@H](C)/C=C/C=C3\\CO[C@@H]4[C@H](O)C(C)=C[C@@H](C(=O)O1)[C@]34O)O2 (tested in a mixture with another compound)")
"active"
>>> discrete_label("C#CCN1C(=O)COc2cc(F)c(N3C(=O)C4=C(CCCC4)C3=O)cc21")
"inactive"
>>> discrete_label("O=C(O)C(F)(F)C(F)(F)C(F)(F)C(F)(F)C(F)(F)C(F)(F)C(F)(F)F")
"inactive"
>>> discrete_label("CCS(=O)(=O)c1cccnc1S(=O)(=O)NC(=O)Nc1nc(OC)cc(OC)n1")
"inactive"
>>> discrete_label("O=[N+]([O-])/N=C1\\NCCN1Cc1ccc(Cl)nc1")
"inactive"
>>> discrete_label("COP(=O)(OC)OC=C(Cl)Cl")
"inactive"
>>> discrete_label("[2H]C1([2H])[n+]2ccccc2-c2cccc[n+]2C1([2H])[2H]")
"inactive"
>>> discrete_label("CCOC1Oc2ccc(OS(C)(=O)=O)cc2C1(C)C (stereo not given)")
"inactive"
>>> discrete_label("CCC(C)(C)C(=O)OC1=C(c2ccc(Cl)cc2Cl)C(=O)OC12CCCCC2")
"inactive"
>>> discrete_label("Clc1ccccc1-c1nnc(-c2ccccc2Cl)nn1")
"inactive"
>>> discrete_label("COc1nn(CSP(=S)(OC)OC)c(=O)s1")
"inactive"
>>> discrete_label("O=C(O)COc1ccc(Cl)cc1Cl")
"inactive"
>>> discrete_label("CCOCN(C(=O)CCl)c1c(C)cccc1CC")
"inactive"
>>> discrete_label("CC(C)(C)C(O)/C(=C\\c1ccc(Cl)cc1Cl)n1cncn1 (stereo not given)")
"inactive"
>>> discrete_label("O=[N+]([O-])c1c(Cl)c(Cl)c(Cl)c(Cl)c1Cl")
"inactive"
>>> discrete_label("CCCN(CCOc1c(Cl)cc(Cl)cc1Cl)C(=O)n1ccnc1")
"inactive"
>>> discrete_label("COc1cc(OC)nc(NC(=O)NS(=O)(=O)c2cc(NC=O)ccc2C(=O)N(C)C)n1")
"inactive"
>>> discrete_label("O=S(=O)(O)C(F)(F)C(F)(F)C(F)(F)C(F)(F)C(F)(F)C(F)(F)C(F)(F)C(F)(F)F")
"inactive"
>>> discrete_label("ClC1C(Cl)C(Cl)C(Cl)C(Cl)C1Cl (stereo not given)")
"inactive"
